Biological target: T1, human PDGFRb.mFc (human)
T1 construct: Soluble dimeric construct with mouse Fc; also called hPDGFRb.mFc; soluble human PDGFR-beta.mFc
T1 chain: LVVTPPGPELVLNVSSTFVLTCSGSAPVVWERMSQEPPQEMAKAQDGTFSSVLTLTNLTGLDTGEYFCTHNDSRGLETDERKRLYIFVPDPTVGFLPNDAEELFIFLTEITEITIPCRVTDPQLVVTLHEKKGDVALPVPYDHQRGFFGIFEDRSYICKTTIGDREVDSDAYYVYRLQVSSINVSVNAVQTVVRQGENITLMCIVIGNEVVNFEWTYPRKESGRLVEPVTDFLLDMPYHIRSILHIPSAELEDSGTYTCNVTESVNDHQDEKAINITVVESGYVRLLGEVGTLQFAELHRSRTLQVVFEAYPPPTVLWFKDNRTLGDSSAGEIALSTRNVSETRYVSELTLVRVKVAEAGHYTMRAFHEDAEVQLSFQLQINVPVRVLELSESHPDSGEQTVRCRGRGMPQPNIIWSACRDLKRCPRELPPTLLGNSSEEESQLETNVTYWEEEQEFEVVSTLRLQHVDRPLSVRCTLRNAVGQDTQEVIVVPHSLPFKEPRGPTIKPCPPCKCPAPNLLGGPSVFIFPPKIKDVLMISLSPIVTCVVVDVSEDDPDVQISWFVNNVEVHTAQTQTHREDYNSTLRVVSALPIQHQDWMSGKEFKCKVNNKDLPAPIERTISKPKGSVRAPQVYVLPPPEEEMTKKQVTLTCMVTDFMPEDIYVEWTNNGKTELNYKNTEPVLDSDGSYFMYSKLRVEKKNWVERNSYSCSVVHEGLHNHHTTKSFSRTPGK
Assay: SPR, mAb captured, 25 C
Procedure: Antibodies, expressed as either mouse Fc (prefix H1M; H2M) or human Fc (prefix H4H), were captured on their respective anti-Fc sensor surfaces (Mab capture format). […] Kinetic association (kₐ) and dissociation (kd) rate constants were determined by processing and fitting the data to a 1:1 binding model using Scrubber 2.0 curve fitting software.
measurementKind: t1/2 (h)
// note: answer is a bare numeric in h

See these solved cases before continuing.
H1M3374N (antibody, V domains shown, mouse Fc format; also called H2M3374N) VH: QLQLQESGPGLVKPSETLSLTCTVSGGSITSSSYYWGWIRQPPGKGLEWIGSIYYRGSTNYNPSLKSRVTISVDSSKNQFYLKVSSVTAVDTAVYYCARQNGAARPSWFDPWGQGTLVTVSS VL: EIVLTQSPDTISLSPGERATLSCRASQSISSIYLAWYQQKPGQAPRLLIYGASSRVTGIPDRFSVSGSGTDFTLTISRLEPEDFAVYYCQHYGISPFTFGPGTKVDIR	1.8
H1M3361N (antibody, mouse IgG1, V domains shown, mouse IgG1 Fc (H1M prefix)) VH: EVQLVESGGGLVQPGGSLRLSCAASGFTFSSYWMTWVRQAPGKGLEWVANIRQDGSDKYYVDSVKGRFTISRDNAKNSLFLQMNSLRAEDTAVYYCARTNGGTYGYNHYYYGMDVWGQGTTVTVSS VL: DIQMTQSPSSLSASVGDRVTITCRASQGIRNDLGWYQLKPGKAPKRLIFAASSLQSGVPSRFSGSGSGTEFTLTISSLQPEDFATYYCLQHNSYPWTFGQGTKVEIK	192

Query binder follows.
According to the records, this binder H2M3373N (antibody, V domains shown, mouse Fc (H2M prefix; isotype not spelled out)) VH: EVQLRDSGGGLVQPGGSLRLSCVASGFTFSSYWMSWVRQAPGKGLEWVVNINRDGSEKYYVDSVKGRFIISRDNTKNSLYLQMESLRAEDTAVYYCARDPPYHLYGMDVWGQGTTVTVSS VL: DIQMTQSPSSLSASVGDRVTITCRTSQGIRVDLAWYQQKPGKAPERLIYAASSLQSGVPSRFSGGGSGTEFTLTVSSLQPEDFATYYCLQHHNFPYTFGQGTKLEIK displays t1/2 of 0.8
